system tested: T1, IFNAR2/Fc fusion protein (extracellular domain of the human IFNAR2 receptor chain fused to the hinge, CH2 and … (human, UniProt P48551 27-243))
T1 construct: extracellular domain; also called IFNAR2-ectodomain/Fc fusion protein; IFNAR/Fc; not shown: human IgG1 heavy chain constant region: hinge, CH2 and CH3 domains
T1 sequence (looked up): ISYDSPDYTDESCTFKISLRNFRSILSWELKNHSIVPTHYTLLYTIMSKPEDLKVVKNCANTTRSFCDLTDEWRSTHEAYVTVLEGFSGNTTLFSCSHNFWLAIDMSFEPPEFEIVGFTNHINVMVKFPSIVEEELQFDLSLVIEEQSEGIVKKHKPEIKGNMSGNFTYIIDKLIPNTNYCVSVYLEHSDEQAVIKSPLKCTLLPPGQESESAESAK
protocol details: ELISA on captured IFNAR2-Fc
measured endpoint: concentration tested relative to the w.t. his-IFN-beta EC50 (fold)
The response must be a number in fold with no trailing unit.

Known results for binders:
binder="his tagged interferon-beta alanine substitution mutant AB1 (ligand, glycosylated at Asn 80 of the interferon-beta moiety) SGGHHHHHHSSGDDDDKMSYNLLGFLQRSSNFQCQKLLWQLNGRAAACAADRMNFDIPEEIKQLQQFQKEDAALTIYEMLQNIFAIFRQDSSSTGWNETIVENLLANVYHQINHLKTVLEEKLEKEDFTRGKLMSSLHLKRYYGRILHYLKAKEYSHCAWTIVRVEILRNFYFINRLTGYLRN" endpoint_unit=fold result=500
binder="his tagged interferon-beta alanine substitution mutant A2 (ligand, glycosylated at Asn 80 of the interferon-beta moiety, also called A2 helix) SGGHHHHHHSSGDDDDKMSYNLLGFLQRSSNAACAALLAALNGRLEYCLKDRMNFDIPEEIKQLQQFQKEDAALTIYEMLQNIFAIFRQDSSSTGWNETIVENLLANVYHQINHLKTVLEEKLEKEDFTRGKLMSSLHLKRYYGRILHYLKAKEYSHCAWTIVRVEILRNFYFINRLTGYLRN" endpoint_unit=fold result=500

API: the following record is the query input.
The binder identified as his tagged interferon-beta alanine substitution mutant E (ligand, glycosylated at Asn 80 of the interferon-beta moiety, also called E helix) SGGHHHHHHSSGDDDDKMSYNLLGFLQRSSNFQCQKLLWQLNGRLEYCLKDRMNFDIPEEIKQLQQFQKEDAALTIYEMLQNIFAIFRQDSSSTGWNETIVENLLANVYHQINHLKTVLEEKLEKEDFTRGKLMSSLHLKRYYGRILHYLKAKEYSHCAWTIVRAEILANFAFIARLTGYLRN registered its concentration tested relative to the w.t. his-IFN-beta EC50 at 500
